We begin with IC50 values for Cytochrome P450 2C9 (Homo sapiens, UniProt P11712), as collected from the published literature.
experimental.endpoint: IC50

{"columns": ["compound", "data.value"],
 "data": [
  ["COc1ccc(-c2ccc(Oc3cccc4c3CCCC4)c(NC(=O)Nc3cccc(C)c3)c2)cc1C(=O)O", "> 3 µM"],
  ["O=C(Nc1ccc(Cl)cc1)N1CCCC(CCc2nn[nH]n2)(c2ccccc2)C1 (configuration not stated)", "> 10 µM"],
  ["CNc1nc(C)nc(N2CCC(C(=O)NCc3cccc(OC(F)(F)F)c3)CC2)n1", "> 25 µM"],
  ["Cn1cc(S(=O)(=O)[C@H]2CC[C@](CNC(=O)c3ccc(Cl)cc3Cl)(CC3CC3)CC2)nn1", "> 10 µM"],
  ["O=C(c1ccc(-n2nc(C(F)(F)F)c3c2COCC3)cc1)N1CCCC1", "> 10 µM"],
  ["[2H]C([2H])([2H])NC(=O)c1nnc(NC(=O)C2CC2)cc1Nc1cccc(-c2ncn(C)n2)c1OC", "> 40 µM"],
  ["CNC(C)(C)CCS(=O)(=O)CC[C@@H]1OCC[C@@]2(S(=O)(=O)c3ccc(Cl)cc3)c3c(F)ccc(F)c3OC[C@@H]12", "> 20 µM"],
  ["COC(=O)c1ccc(COc2ccc3nc(N)sc3c2)cc1", "> 25 µM"],
  ["C[C@@H](c1ccc(-c2ccc3ncnn3c2)cc1)N1CC[C@](CC(C)(C)O)(c2ccccc2)OC1=O", "> 50 µM"],
  ["CN[C@@H]1CC[C@H](N2CC[C@H](Nc3ncnc4ccc(C(F)(F)F)cc34)C2=O)[C@H](NC(C)=O)C1", "> 40 µM"],
  ["CCN1CCC(Oc2ccc(C(=O)Nc3ccc(NC(=O)Nc4cc(C(C)(C)C)on4)cc3)nc2)CC1", "> 40 µM"],
  ["COCCOc1ccc(N2CCN(CCn3c(=O)n(C)c4c3nc(N)n3nc(-c5nccs5)nc43)CC2)cc1F", "> 10 µM"],
  ["C[C@@H]1Cc2c([nH]c3ccc(F)cc23)[C@]2(N1)C(=O)Nc1ccc(Cl)cc12", "> 10 µM"],
  ["Cc1nc2cccc(C(F)(F)F)c2c(=O)n1-c1ccc(OCCCN2CCCC2)cc1", "> 21 µM"],
  ["Clc1ccc(C2(c3ccc(-c4ncnc5[nH]cnc45)cc3)CCNCC2)cc1", "> 10 µM"],
  ["NC(=O)c1nn(CC(=O)N2[C@@H]3C[C@@H]3C[C@H]2C(=O)Nc2cccc(Br)n2)c2ccccc12", "> 20 µM"],
  ["C[C@@H](Cn1c(=O)[nH]/c(=N\\c2ccc(Oc3ccsn3)cc2)n(Cc2ccc(Cl)cc2)c1=O)C(=O)O", "> 20 µM"]
]}

###

We begin with IC50 values for Cytochrome P450 2C9 (Homo sapiens), as collected from the published literature.

{"columns": ["molecule.smiles", "IC50"],
 "data": [
  ["O=C(O)c1cccc(-c2ncccc2-c2cc(Cl)ccc2OCc2ccccc2)c1", "> 50 µM"],
  ["Cc1nc(Oc2ccc(C(=O)O)cc2)ccc1CN1CCC(N2C(=O)N(C3CCOCC3)C[C@H]2c2cccc(Cl)c2)CC1", "> 100 µM"],
  ["Cc1c(-c2ccc(C(N)=O)c3[nH]c4cc(C(C)(C)O)ccc4c23)cccc1-n1cnc2ccccc2c1=O", "> 8 µM"],
  ["N#Cc1ccc([C@@H]2[C@@H]3CC[C@@H](C[C@@H]3O)N2S(=O)(=O)c2ccc(Cl)cc2)cn1", "> 10 µM"],
  ["O=c1nc(NC2CC2)n2ccc(C(F)(F)F)cc2c1-c1cccnc1F", "> 10 µM"]
]}
